- Tested on: RPMI-8226
- protocol: NCI tumour cell line growth inhibition, 48 h
Calls of active or inactive are those of the source. Cut-off read from the data, not from the text of the source: active = GI50 up to about 1.1 µM and inactive = higher.
Possible outcomes: active, inactive

compound	label
[O-][S+](Nc1ccccc1)c1cccc(Cl)c1 (configuration not stated)	inactive
COC(=O)Nc1nc2cc(NS(=O)(=O)c3ccc(Cl)cc3)ccc2[nH]1	inactive
O=C(O)c1cc2ccccc2c(/N=N\c2cc(C(F)(F)F)ccc2Cl)c1O	inactive
C=CC[C@@]1(C#N)C[C@H](C[C@]2(C#N)C[C@H](CCl)OC(C)(C)O2)OC(C)(C)O1	inactive
COc1ccc(C2C(C(=O)O)=C(COC(C)=O)Oc3cc4c(cc32)OCO4)c(OC)c1 (configuration not stated)	inactive
c1ccc(NC2(c3nnnn3C3CCCCC3)CCNCC2)cc1	inactive
O=C1C=CC(=O)C2=C1[C@@H](O)C1CC=CC3C(=O)O[C@@H]2C31 (some centres not stated)	inactive
CC1=NN(c2cccc(Cl)c2)C2(SCC(=O)N2c2nc3ccccc3s2)/C1=C\c1ccccc1O (configuration not stated)	inactive
Cc1cc2nc3c(C#N)c4c(c(Nc5ccc(F)cc5)n3c2cc1C)CCC4	inactive
CCC1(O)C(=O)OCc2c1cc1n(c2=O)Cc2cc3cc4c(cc3nc2-1)OCO4 (configuration not stated)	active
COCn1c(C)c(C)c2c(=O)oc(=O)[nH]c21	inactive
COc1ccccc1CCN1CCN(CCCc2ccccc2)CC1	inactive
COC1(C)CP(=O)(OC(C)C)CC(C)=C1Cl (configuration not stated)	inactive
CC(=O)c1ccccc1NC(=O)C(=O)C(C(=O)c1ccc2ccccc2c1)C1OC(=O)c2ccccc21 (configuration not stated)	inactive
Cc1c2cc[n+](C)cc2c(C)c2c1[nH]c1ccc(Oc3ccccc3)cc12	inactive
CC(C)(C)C(=O)OCOP(=O)(OCOC(=O)C(C)(C)C)OCC1OC(n2ccc(=O)[nH]c2=O)C(N=[N+]=[N-])C1O (configuration not stated)	inactive
CC(C)N(C(=O)C12C3C4C5C3C1(C(=O)N(C(C)C)C(C)C)C5(C#N)C42)C(C)C (configuration not stated)	inactive
N=C(NNS(=O)(=O)c1ccccc1)Oc1ccc(Cl)cc1	inactive
COc1ccc(N)c(C(O)CCNC(C)=O)c1 (configuration not stated)	inactive
CC(=O)Nc1ccc(C(=O)N2N=C(C)/C(=C/c3ccccc3O)C2=O)cc1	inactive
c1ccc2c(c1)SC1=C(SC(=C3SC4=C(S3)Sc3ccccc3S4)S1)S2	inactive
CCOC(=O)/C(=C/c1cn(C(C)=O)c2ccccc12)P(=O)(OC)OC	inactive
CC(C)C(Nc1c2ccccc2[n+](C)c2ccccc12)C(=O)O (configuration not stated)	inactive
CCN(CC)CCOc1ccc(N2Cc3ccccc3C2=O)cc1	inactive
O=c1c2ccccc2[nH]n1Cc1ccccc1	inactive
COc1ccc2oc(=O)c(-c3nc4ccccc4s3)cc2c1	inactive
O=c1c2c(nc3n1CCC3)sc1c(O)c(Br)ccc12	inactive
